Answer each item with its documented MIC.
- Test system: P. aeruginosa 101243
- PROTOCOL_SUMMARY: Checkerboard assay
- Format: cell-based, Pseudomonas aeruginosa
- CONDITION_LABEL: Pseudomonas aeruginosa, 101243, agent alone, one value per checkerboard plate
One number for each entry, in µg/mL.

Some molecules with recorded MIC:
MOLECULE	TARGET_OF_ASSAY	MIC / µg/mL
CO[C@H]1/C=C/O[C@@]2(C)Oc3c(C)c(O)c4c(O)c(c(/C=N/N5CCN(C)CC5)c(O)c4c3C2=O)NC(=O)/C(C)=C\C=C\[C@H](C)[C@H](O)[C@@H](C)[C@@H](O)[C@@H](C)[C@H](OC(C)=O)[C@@H]1C [Rifampicin]	P. aeruginosa 101243	2
CC[C@H]1OC(=O)[C@H](C)[C@@H](O[C@H]2C[C@@](C)(OC)[C@@H](O)[C@H](C)O2)[C@H](C)[C@@H](O[C@@H]2O[C@H](C)C[C@H](N(C)C)[C@H]2O)[C@](C)(O)C[C@@H](C)C(=O)[C@H](C)[C@@H](O)[C@]1(C)O [Erythromycin]	P. aeruginosa 101243	1020
CC(C)(O/N=C(\C(=O)N[C@@H]1C(=O)N2C(C(=O)[O-])=C(C[n+]3ccccc3)CS[C@H]12)c1csc(N)n1)C(=O)O [Ceftazidime]	P. aeruginosa 101243	64

In the following, a different molecule is considered.
Request: So what does the record say about MIC for C[C@H]1[C@H](NC(=O)/C(=N\OC(C)(C)C(=O)O)c2csc(N)n2)C(=O)N1S(=O)(=O)O [Aztreonam] ?
Result: 16

====

- System: A. baumannii ATCC 17978
- PROTOCOL_SUMMARY: microbe, parasite or virus in culture
- Format: cell-based, Acinetobacter baumannii
- CONDITION_LABEL: agent alone, one value per checkerboard plate
Bridge positions count the residues as written; N and C are the ends. Square brackets hold non-standard residues; d marks the D form. Peptide text beside a SMILES is read from it. * marks the point of attachment. X1 = CC[C@H](C)CCCCC(=O)*; Dab = NCC[C@H](N)C(=O)O
ATTRIBUTE_MEASURED: MIC alone (µg/mL)
Numbers only, in µg/mL.

Some molecules with recorded MIC alone:
MOLECULE	MIC alone (µg/mL)
C[C@H]1COc2c(N3CCN(C)CC3)c(F)cc3c(=O)c(C(=O)O)cn1c23	0.063
C[C@H]1c2cccc(O)c2C(=O)C2=C(O)[C@]3(O)C(=O)C(C(N)=O)=C(O)[C@@H](N(C)C)[C@@H]3[C@@H](O)[C@@H]21	0.063

Kindly give each listed record's MIC alone.
1. CN(C)c1ccc(O)c2c1C[C@H]1C[C@H]3[C@H](N(C)C)C(O)=C(C(N)=O)C(=O)[C@@]3(O)C(O)=C1C2=O
2. CC[C@H](C)CCCCC(=O)N[C@@H](CCN)C(=O)N[C@H](C(=O)N[C@@H](CCN)C(=O)N[C@H]1CCNC(=O)[C@H]([C@@H](C)O)NC(=O)[C@H](CCN)NC(=O)[C@H](CCN)NC(=O)[C@H](CC(C)C)NC(=O)[C@@H](CC(C)C)NC(=O)[C@H](CCN)NC1=O)[C@@H](C)O [Colistin, colistin] (X1-[Dab]T[Dab][Dab][Dab][dL]L[Dab][Dab]T; lactam 4-C (inferred); N-terminus assumed)

Result:
1: 0.25; 2: 0.25

====

- System: E. coli ATCC 25922
- PROTOCOL_SUMMARY: microbe, parasite or virus in culture
- Assay type: cell-based, Escherichia coli
Bridge positions count the residues as written; N and C are the ends. Square brackets hold non-standard residues; d marks the D form. Peptide text beside a SMILES is read from it. * marks the point of attachment. X1 = CC[C@H](C)CCCCC(=O)*; Dab = NCC[C@H](N)C(=O)O
ATTRIBUTE_MEASURED: Absolute MIC of antibiotic at 2 μg/mL GPMB
Answer with the value and then the unit.

Some molecules with recorded Absolute MIC of antibiotic at 2 μg/mL GPMB:
MOLECULE	RESULT
CC[C@H](C)CCCCC(=O)N[C@@H](CCN)C(=O)N[C@H](C(=O)N[C@@H](CCN)C(=O)N[C@H]1CCNC(=O)[C@H]([C@@H](C)O)NC(=O)[C@H](CCN)NC(=O)[C@H](CCN)NC(=O)[C@H](CC(C)C)NC(=O)[C@@H](CC(C)C)NC(=O)[C@H](CCN)NC1=O)[C@@H](C)O [Colistin, colistin] (X1-[Dab]T[Dab][Dab][Dab][dL]L[Dab][Dab]T; lactam 4-C (inferred); N-terminus assumed)	0.0313 µg/mL
C[C@H]1[C@H](NC(=O)/C(=N\OC(C)(C)C(=O)O)c2csc(N)n2)C(=O)N1S(=O)(=O)O	0.016 µg/mL
CCN1CCN(C(=O)N[C@@H](C(=O)N[C@@H]2C(=O)N3[C@@H]2SC(C)(C)[C@@H]3C(=O)O)c2ccccc2)C(=O)C1=O	0.063 µg/mL

Request: So what does the record say about Absolute MIC of antibiotic at 2 μg/mL GPMB for CCC[C@@H]1C[C@@H](C(=O)N[C@@H]([C@H]2O[C@H](SC)[C@H](O)[C@@H](O)[C@H]2O)[C@H](C)Cl)N(C)C1 ?
Result: 8 µg/mL

====

- Tested on: A. baumannii 92247
- PROTOCOL_SUMMARY: microbe, parasite or virus in culture
- Format: cell-based, Acinetobacter baumannii
- CONDITION_LABEL: Acinetobacter baumannii, 92247, agent alone, one value per checkerboard plate
Answer each item with its documented MIC.
Numbers only, in µg/mL.

Some compounds with recorded MIC:
COMPOUND	TARGET_OF_ASSAY	ATTRIBUTE_MEASURED	RESULT
CC(C)(O/N=C(\C(=O)N[C@@H]1C(=O)N2C(C(=O)[O-])=C(C[n+]3ccccc3)CS[C@H]12)c1csc(N)n1)C(=O)O [Ceftazidime]	A. baumannii 92247	MIC	16
C[C@H]1[C@H](NC(=O)/C(=N\OC(C)(C)C(=O)O)c2csc(N)n2)C(=O)N1S(=O)(=O)O [Aztreonam]	A. baumannii 92247	MIC	128
CC[C@H]1OC(=O)[C@H](C)[C@@H](O[C@H]2C[C@@](C)(OC)[C@@H](O)[C@H](C)O2)[C@H](C)[C@@H](O[C@@H]2O[C@H](C)C[C@H](N(C)C)[C@H]2O)[C@](C)(O)C[C@@H](C)C(=O)[C@H](C)[C@@H](O)[C@]1(C)O [Erythromycin]	A. baumannii 92247	MIC	8

In the following, a different compound is considered.
Request: Checklist item: MIC tested on A. baumannii 92247, entry CO[C@H]1/C=C/O[C@@]2(C)Oc3c(C)c(O)c4c(O)c(c(/C=N/N5CCN(C)CC5)c(O)c4c3C2=O)NC(=O)/C(C)=C\C=C\[C@H](C)[C@H](O)[C@@H](C)[C@@H](O)[C@@H](C)[C@H](OC(C)=O)[C@@H]1C [Rifampicin] , value?
Result: 1

====

- System: E. coli ATCC 25922
- PROTOCOL_SUMMARY: microbe, parasite or virus in culture
- Assay type: cell-based, Escherichia coli
ATTRIBUTE_MEASURED: Absolute MIC of antibiotic at 2 μg/mL GPMB (µg/mL)
Numbers only, in µg/mL.

Some compounds with recorded Absolute MIC of antibiotic at 2 μg/mL GPMB:
INPUT_SMILES	TARGET_OF_ASSAY	RESULT
C=C[C@]1(C)C[C@@H](OC(=O)CO)[C@]2(C)[C@H](C)CC[C@]3(CCC(=O)[C@H]32)[C@@H](C)[C@@H]1O	E. coli ATCC 25922	0.125
O=C(N[C@H](CO)[C@H](O)c1ccc([N+](=O)[O-])cc1)C(Cl)Cl	E. coli ATCC 25922	0.5

Kindly give each listed record's Absolute MIC of antibiotic at 2 μg/mL GPMB.
1. CO[C@H]1/C=C/O[C@@]2(C)Oc3c(C)c(O)c4c(O)c(c(/C=N/N5CCN(C)CC5)c(O)c4c3C2=O)NC(=O)/C(C)=C\C=C\[C@H](C)[C@H](O)[C@@H](C)[C@@H](O)[C@@H](C)[C@H](OC(C)=O)[C@@H]1C
2. CN[C@H](CC(C)C)C(=O)N[C@H]1C(=O)N[C@@H](CC(N)=O)C(=O)N[C@H]2C(=O)N[C@H]3C(=O)N[C@H](C(=O)N[C@H](C(=O)O)c4cc(O)cc(O)c4-c4cc3ccc4O)[C@H](O)c3ccc(c(Cl)c3)Oc3cc2cc(c3O[C@@H]2O[C@H](CO)[C@@H](O)[C@H](O)[C@H]2O[C@H]2C[C@](C)(N)[C@H](O)[C@H](C)O2)Oc2ccc(cc2Cl)[C@H]1O
3. CN(C)c1ccc(O)c2c1C[C@H]1C[C@H]3[C@H](N(C)C)C(O)=C(C(N)=O)C(=O)[C@@]3(O)C(O)=C1C2=O
4. CC(C)(O/N=C(\C(=O)N[C@@H]1C(=O)N2C(C(=O)[O-])=C(C[n+]3ccccc3)CS[C@H]12)c1csc(N)n1)C(=O)O
5. NC[C@H]1O[C@H](O[C@H]2[C@H](O)[C@@H](O[C@H]3O[C@H](CO)[C@@H](O)[C@H](N)[C@H]3O)[C@H](N)C[C@@H]2N)[C@H](N)C[C@@H]1O
6. CC(=O)NC[C@H]1CN(c2ccc(N3CCOCC3)c(F)c2)C(=O)O1

Result:
[0.008, 8, 0.125, 0.063, 1, 8]

Kindly give each listed record's Absolute MIC of antibiotic at 2 μg/mL GPMB.
1. C[C@H]1COc2c(N3CCN(C)CC3)c(F)cc3c(=O)c(C(=O)O)cn1c23
2. CO[C@@H]1[C@@H](OC(N)=O)[C@@H](O)[C@H](Oc2ccc3c(O)c(NC(=O)c4ccc(O)c(CC=C(C)C)c4)c(=O)oc3c2C)OC1(C)C
3. COc1c(N2C[C@@H]3CCCN[C@@H]3C2)c(F)cc2c(=O)c(C(=O)O)cn(C3CC3)c12

Result:
1. 0.032
2. 0.25
3. 0.004

Values compiled from paper PMC9598282.
